Measured Target: recombinant human Flag-tagged PARP7 (amino acids 456-657) (Homo sapiens, UniProt Q7Z3E1)
Construct: recombinant human Flag-tagged PARP7 (amino acids 456-657)
Sequence (Q7Z3E1 456-657): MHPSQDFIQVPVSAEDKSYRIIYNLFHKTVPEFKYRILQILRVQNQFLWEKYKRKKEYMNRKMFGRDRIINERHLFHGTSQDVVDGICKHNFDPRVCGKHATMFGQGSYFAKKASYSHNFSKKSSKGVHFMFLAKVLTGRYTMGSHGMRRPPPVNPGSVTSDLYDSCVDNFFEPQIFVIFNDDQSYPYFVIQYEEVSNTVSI
Protocol Text: PARP7 biochemical DELFIA assay (auto-MARylation)
Condition Notes: DELFIA readout, IC50 class
Procedure: A suitable assay may be conducted using 10-30 nM PARP7 (amino acids 456-657), 2 μM biotin-NAD assay solution in 20 mM HEPES (pH 7.5), 100 mM NaCl, 2 mM DTT, 0.1% BSA (w/v), 0.02% Tween (v/v) assay buffer. MARylation may take place for 2-3 h at room temperature and may be detected using a dissociation-enhanced lanthanide fluorescence immunoassay (DELFIA) readout. […] Following incubation for 30 min at room temperature, fluorescence was read on either an Envision or Pherastar FS (Ex337 nm, Em620 nm).
pIC50: −log10 of the molar value.
Measured pIC50 of individual entries

Please review the entries below; each comes with its answer.
>  <Compound>
CC(COCCC(=O)N1CCN(c2ncc(C#N)cn2)CC1)n1cc(C(F)(F)F)c2c(=O)[nH]ncc21 (centres unmarked) [Compound 465]

>  <pIC50>
≥ 7.00

$$$$
>  <Compound>
O=C(CCOCCc1cccc2c(=O)[nH]ncc12)N1CCN(c2ccc(F)cn2)CC1

>  <pIC50>
6.00 to 7.00

$$$$
>  <Compound>
O=C(NCCOc1cccc2c(=O)[nH]ncc12)N1CCN(c2ncc(C(F)(F)F)cn2)CC1

>  <pIC50>
6.00 to 7.00

$$$$

Quick one: pIC50 for CC(COCCC(=O)N1CCN(c2ncc(C(C)(F)F)cn2)CC1)n1nc(C(F)(F)F)c2c(=O)[nH]ncc21 (single isomer, unassigned) [Compound 485] ?
≥ 7.00

---

Measured Target: recombinant human Flag-tagged PARP7 (amino acids 456-657) (Homo sapiens)
Construct: recombinant human Flag-tagged PARP7 (amino acids 456-657)
Protocol Text: PARP7 biochemical DELFIA assay (auto-MARylation)
Condition Notes: DELFIA readout, IC50 class
Experimental: A suitable assay may be conducted using 10-30 nM PARP7 (amino acids 456-657), 2 μM biotin-NAD assay solution in 20 mM HEPES (pH 7.5), 100 mM NaCl, 2 mM DTT, 0.1% BSA (w/v), 0.02% Tween (v/v) assay buffer. MARylation may take place for 2-3 h at room temperature and may be detected using a dissociation-enhanced lanthanide fluorescence immunoassay (DELFIA) readout. […] Following incubation for 30 min at room temperature, fluorescence was read on either an Envision or Pherastar FS (Ex337 nm, Em620 nm).
Experimental Readout: IC50

Sample records with IC50:
>  <Compound>
CC1Cc2c(cn[nH]c2=O)N(CCOCCC(=O)N2CCN(c3ncc(C(F)(F)F)cn3)CC2)C1 (single isomer, unassigned) [Compound 64]

>  <Reported Measurement>
≤ 100 nM

$$$$
>  <Compound>
O=C(CCOCCN1CCCc2c1cn[nH]c2=O)N1CCN(c2ncc(C(F)(F)F)cn2)CC1

>  <Reported Measurement>
≤ 100 nM

$$$$
>  <Compound>
O=C(CCOCCc1cccc2c(=O)[nH]ncc12)N1CCN(c2ccccn2)CC1

>  <Reported Measurement>
100 to 1000 nM

$$$$
>  <Compound>
CC(COCCC(=O)N1CCN(c2ncccc2C#N)CC1)n1nc(C(F)(F)F)c2c(=O)[nH]ncc21 (single isomer, unassigned) [Compound 406]

>  <Reported Measurement>
≤ 100 nM

$$$$
>  <Compound>
CC(COCCC(=O)N1CCN(c2ccc(C#N)cn2)CC1)n1cc(C(F)F)c2c(=O)[nH]ncc21 (stereo not drawn) [Compound 449]

>  <Reported Measurement>
≤ 100 nM

$$$$

Tell me the measured IC50 of CC(CCOCC(=O)N1CCN(c2ncc(Cl)cn2)CC1)n1nc(C(F)(F)F)c2c(=O)[nH]ncc21 (stereo not drawn) [Compound 452] , please.
≤ 100 nM
